Give measured IC50 for each item. Keep answers brief.
target.under.test: FGFR2 (Homo sapiens (Human))
Sequence (P21802 22-821): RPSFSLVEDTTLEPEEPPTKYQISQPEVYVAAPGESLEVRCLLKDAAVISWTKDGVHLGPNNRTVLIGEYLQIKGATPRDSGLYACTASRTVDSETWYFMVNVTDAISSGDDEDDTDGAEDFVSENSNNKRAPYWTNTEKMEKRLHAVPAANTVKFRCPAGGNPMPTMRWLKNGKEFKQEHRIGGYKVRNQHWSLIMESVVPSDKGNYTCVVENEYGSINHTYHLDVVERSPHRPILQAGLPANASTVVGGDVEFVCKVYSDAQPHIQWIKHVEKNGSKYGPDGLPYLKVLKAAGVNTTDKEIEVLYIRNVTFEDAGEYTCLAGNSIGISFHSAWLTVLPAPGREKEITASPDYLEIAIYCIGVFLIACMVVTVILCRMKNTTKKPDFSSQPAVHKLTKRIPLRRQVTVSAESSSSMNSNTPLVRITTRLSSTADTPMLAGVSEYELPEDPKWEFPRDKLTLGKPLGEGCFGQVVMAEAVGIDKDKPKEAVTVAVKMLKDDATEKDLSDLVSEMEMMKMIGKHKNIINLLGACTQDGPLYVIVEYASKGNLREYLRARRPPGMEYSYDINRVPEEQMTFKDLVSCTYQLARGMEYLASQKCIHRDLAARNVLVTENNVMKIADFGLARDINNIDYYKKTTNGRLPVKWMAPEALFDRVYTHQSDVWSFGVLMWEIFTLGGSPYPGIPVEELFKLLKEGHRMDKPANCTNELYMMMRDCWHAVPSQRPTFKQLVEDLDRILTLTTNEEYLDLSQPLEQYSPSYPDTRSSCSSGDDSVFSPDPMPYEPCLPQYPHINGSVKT
assay.info: FGFR2 Biochemical Caliper Assay

In the examples that follow, each entry is paired with its recorded IC50.
// IC50 lookup, molecule = C=CC(=O)N1CCC(c2c(-c3ccc(Oc4ncc(Cl)cn4)cc3)c3c(N)ncnc3n2C)C1 (stereo not shown) [Example 739] , result: 100 to 250 nM

Entry C=C(C)C(=O)Nc1ccc(-c2c(-c3cnc(Oc4cccc(C)n4)nc3)c3c(N)ncnc3n2C)cc1 [Example 483] — recorded IC50 = 1000 to 100000 nM

# IC50 (molecule: C=C(C)C(=O)Nc1ccc(-c2c(-c3ccc(S(=O)(=O)CC4CCCC4)cc3)c3c(N)ncnc3n2C)cc1 [Example 314] ) is 250 to 1000 nM

Entry C=CC(=O)N(C)c1ccc(-c2[nH]c3ncnc(N)c3c2-c2ccc(Oc3cccc(C)n3)cc2)cc1 [Example 777] ; IC50 = 1000 to 100000 nM

// C=C(C)C(=O)Nc1ccc(-c2c(-c3ccc(C(=O)N4CC5CCC5C4)cc3)c3c(N)ncnc3n2C)cc1 (stereo not shown) [Example 291] : IC50 value = < 100 nM

Data point: C=CC(=O)N1CCC(c2c(-c3ccc(CN4CCCS4(=O)=O)cc3)c3c(N)ncnc3n2C)C1 (stereo not shown) [Example 797] ; IC50 = 250 to 1000 nM

More entries:
IC50 reported for this molecule C=CC(=O)N1CCC(c2c(-c3ccc(C(=O)C4CCCC4)cc3)c3c(N)ncnc3n2C)C1 (stereo not shown) [Example 784] : 1000 to 100000 nM
